Target: Mtb LeuRS (Mycobacterium tuberculosis, UniProt P9WFV1)
Sequence (P9WFV1 whole entry): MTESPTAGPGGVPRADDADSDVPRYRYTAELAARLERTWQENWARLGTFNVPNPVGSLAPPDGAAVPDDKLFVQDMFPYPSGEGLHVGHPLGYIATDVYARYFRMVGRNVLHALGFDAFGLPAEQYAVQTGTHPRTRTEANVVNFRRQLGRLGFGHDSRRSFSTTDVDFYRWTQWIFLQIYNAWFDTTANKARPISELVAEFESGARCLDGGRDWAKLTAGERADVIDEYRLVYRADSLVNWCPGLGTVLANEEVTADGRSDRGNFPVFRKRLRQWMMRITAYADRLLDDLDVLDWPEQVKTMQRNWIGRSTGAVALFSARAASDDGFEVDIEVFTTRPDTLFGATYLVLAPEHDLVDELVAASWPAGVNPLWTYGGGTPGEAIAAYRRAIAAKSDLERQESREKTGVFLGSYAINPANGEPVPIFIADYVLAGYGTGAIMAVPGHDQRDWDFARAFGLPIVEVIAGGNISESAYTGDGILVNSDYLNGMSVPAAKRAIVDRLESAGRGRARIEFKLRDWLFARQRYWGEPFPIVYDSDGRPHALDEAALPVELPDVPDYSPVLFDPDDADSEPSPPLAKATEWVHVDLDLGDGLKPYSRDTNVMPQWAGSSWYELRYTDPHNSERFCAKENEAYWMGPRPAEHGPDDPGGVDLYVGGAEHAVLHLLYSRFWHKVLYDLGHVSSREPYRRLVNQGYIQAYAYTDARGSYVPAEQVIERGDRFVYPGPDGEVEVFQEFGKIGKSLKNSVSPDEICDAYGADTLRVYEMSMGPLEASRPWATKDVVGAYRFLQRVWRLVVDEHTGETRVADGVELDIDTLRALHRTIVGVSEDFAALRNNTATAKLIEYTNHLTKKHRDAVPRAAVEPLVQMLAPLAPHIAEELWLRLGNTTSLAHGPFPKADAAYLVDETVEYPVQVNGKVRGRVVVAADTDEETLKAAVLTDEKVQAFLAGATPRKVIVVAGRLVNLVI
Assay: LeuRS aminoacylation assay, IC50 determination
Format: biochemical, M. tuberculosis
Conditions: read-out: Mtb LeuRS IC50
pIC50: −log10 of the molar value. Structures can show the parent of a compound that is named as a salt.
Label criterion met when pIC50 is at or above 6; otherwise label criterion not met.

molecule | assigned-category
Cl.NCC1OB2OCCOc3ccc(Cl)c1c32 (racemic) [Example 3, hydrochloride] | criterion met
NC[C@H]1OB2OCCOc3ccc(I)c1c32 [Example 6, hydrochloride] | criterion met
CC1(C)COc2c(Cl)ccc3c2B(OC3CN)O1 (centres unmarked) [Example C8-Cl, reference compound] | criterion not met

---

Target: Mtb LeuRS (Mycobacterium tuberculosis)
Assay: LeuRS aminoacylation assay, IC50 determination
Assay type: biochemical, M. tuberculosis
Details: read-out: Mtb LeuRS IC50
Experimental: For biochemical analyses an N-terminal six histidine-tagged LeuRS was over-expressed in Escherichia coli which were E. coli codon-optimised (GenScript, Piscataway N.J., USA), from human mitochondria and cytoplasm, and M. tuberculosis. […] Reactions were initiated by the addition of 4 mM ATP. Reactions were stopped after 7 minutes then precipitated and counted to quantify radioactivity. IC50 values were determined using the Graphpad Prism software package (Graphpad Software Inc. (La Jolla, Calif., USA).
We begin with a simple list: items and their reported IC50.
metric: IC50 (nM)

compound | target-under-test | bound-operator | assay-result
CC1COc2ccc(Br)c3c2B(O1)OC3CN.Cl (centres unmarked) [Example 8, hydrochloride] | Mtb LeuRS (Mycobacterium tuberculosis) | = | 1430
Cl.NC[C@H]1OB2O[C@H](CO)COc3ccc(F)c1c32 [Example 13, hydrochloride] | Mtb LeuRS (Mycobacterium tuberculosis) | = | 480
CC1(C)COB2OC(CN)c3cccc(c32)O1 (centres unmarked) [Example C10-H, reference compound] | Mtb LeuRS (Mycobacterium tuberculosis) | > | 300000
CCOc1cccc2c1B(O)O[C@@H]2CN [Example C5-H, reference compound] | Mtb LeuRS (Mycobacterium tuberculosis) | = | 111
NC[C@H]1OB2OCCOc3c(Cl)cc(Cl)c1c32 [Example C14-Cl2, reference compound] | Mtb LeuRS (Mycobacterium tuberculosis) | = | 4670
C[C@]1(CO)COc2ccc(Cl)c3c2B(OC3CN)O1 (some centres unmarked) [Example 15] | Mtb LeuRS (Mycobacterium tuberculosis) | = | 3130
CC1(C)COB2OC(CN)c3c(Cl)ccc(c32)O1 (centres unmarked) [Example C9-Cl, reference compound] | Mtb LeuRS (Mycobacterium tuberculosis) | = | 37600
Cl.NC[C@H]1OB2OCCOc3ccc(Br)c1c32 [Example 2, hydrochloride] | Mtb LeuRS (Mycobacterium tuberculosis) | = | 115
NCC1OB2OCCOc3cccc1c32 (racemic) [Example C2-H, reference compound] | Mtb LeuRS (Mycobacterium tuberculosis) | = | 506
c1cc2c3c(c1)OCCOB3OC2 [Example C1-H, reference compound] | Mtb LeuRS (Mycobacterium tuberculosis) | = | 12200
CC1(C)COc2ccc(Cl)c3c2B(O[C@@H]3CN)O1.Cl [Example 12, hydrochloride] | Mtb LeuRS (Mycobacterium tuberculosis) | = | 780
CC1(C)COc2ccc(Br)c3c2B(OC3CN)O1.Cl (centres unmarked) [Example 9, hydrochloride] | Mtb LeuRS (Mycobacterium tuberculosis) | = | 1250
Cl.NCC1OB2OCCOc3ccc(F)c1c32 (centres unmarked) [Example 5, hydrochloride] | Mtb LeuRS (Mycobacterium tuberculosis) | = | 460
C[C@@]1(CO)COc2ccc(Br)c3c2B(OC3CN)O1 (some centres unmarked) [Example 16] | Mtb LeuRS (Mycobacterium tuberculosis) | = | 2690
CC1(C)COc2ccc(Cl)c3c2B(OC3CN)O1.Cl (centres unmarked) [Example 11, hydrochloride] | Mtb LeuRS (Mycobacterium tuberculosis) | = | 680
CC1COc2cccc3c2B(O1)OC3CN (centres unmarked) [Example C11-H, reference compound] | Mtb LeuRS (Mycobacterium tuberculosis) | = | 510
CC1(C)COc2ccc(Br)c3c2B(O[C@@H]3CN)O1.Cl [Example 10, hydrochloride] | Mtb LeuRS (Mycobacterium tuberculosis) | = | 1130
Cl.NCC1OB2OCCOc3ccc(Br)c1c32 (racemic) [Example 1, hydrochloride] | Mtb LeuRS (Mycobacterium tuberculosis) | = | 154
C[C@]1(CO)COc2ccc(Br)c3c2B(O[C@@H]3CN)O1 [Example 17] | Mtb LeuRS (Mycobacterium tuberculosis) | = | 1970
CC1COc2c(Cl)cc(Cl)c3c2B(O1)OC3CN (centres unmarked) [Example C7-Cl2, reference compound] | Mtb LeuRS (Mycobacterium tuberculosis) | = | 7970
C[C@@]1(CO)COc2ccc(Cl)c3c2B(OC3CN)O1 (single isomer, unassigned) [Example 14] | Mtb LeuRS (Mycobacterium tuberculosis) | = | 4170
NCCOc1cccc2c1B(O)OC2 [Example C3-H, reference compound] | Mtb LeuRS (Mycobacterium tuberculosis) | = | 17600
Cl.NC[C@H]1OB2OCCOc3ccc(Cl)c1c32 [Example 4, hydrochloride] | Mtb LeuRS (Mycobacterium tuberculosis) | = | 148
